Kindly supply the reported AIRE transcriptional activation functional score values for the records listed here.
B1: library; numbered along this chain (parent)
chain: MATDAALRRLLRLHRTEIAVAVDSAFPLLHALADHDVVPEDKFQETLHLKEKEGCPQAFHALLSWLLTQDSTAILDFWRVLFKDYNLERYGRLQPILDSFPKDVDLSQPRKGRKPPAVPKALVPPPRLPTKRKASEEARAAAPAALTPRGTASPGSQLKAKPPKKPESSAEQQRLPLGNGIQTMSASVQRAVAMSSGDVPGARGAVEGILIQQVFESGGSKKCIQVGGEFYTPSKFEDSGSGKNKARSSSGPKPLVRAKGAQGAAPGGGEARLGQQGSVPAPLALPSDPQLHQKNEDECAVCRDGGELICCDGCPRAFHLACLSPPLREIPSGTWRCSSCLQATVQEVQPRAEEPRPQEPPVETPLPPGLRSAGEEVRGPPGEPLAGMDTTLVYKHLPAPPSAAPLPGLDSSALHPLLCVGPEGQQNLAPGARCGVCGDGTDVLRCTHCAAAFHWRCHFPAGTSRPGTGLRCRSCSGDVTPAPVEGVLAPSPARLAPGPAKDDTASHEPALHRDDLESLLSEHTFDGILQWAIQSMARPAAPFPS

Variants of: B1
method-description: AIRE transcriptional activation functional score (insulin promoter-GFP; nonsense median 0, synonymous median 1) (normalised score); higher = higher AIRE activity (more reporter activation)
measurement-parameters: with insulin promoter-GFP reporter in HEK293
Write the number on its own, no unit after it.

QUERY: For the variant shown here, G313K , give the reported AIRE transcriptional activation functional score.
RESULT: 0.717

QUERY: Another variant to check: R494Q
RESULT: 0.696

QUERY: Another variant to check: P400R
RESULT: 1.16

QUERY: Another variant to check: G197C
RESULT: 1.17

QUERY: Another variant to check: G305I
RESULT: -0.493

QUERY: Another variant to check: Y231P
RESULT: 0.54

QUERY: Another variant to check: K111W
RESULT: 0.591

QUERY: Another variant to check: C419E
RESULT: 1.04

QUERY: Another variant to check: M388W
RESULT: 1.46

QUERY: Another variant to check: P148T
RESULT: 1.29

QUERY: Another variant to check: S185Y
RESULT: 0.264

QUERY: Another variant to check: D312Y
RESULT: 0.942

QUERY: Another variant to check: S195D
RESULT: 0.8

QUERY: Another variant to check: L29Y
RESULT: -0.0248

QUERY: Another variant to check: A505D
RESULT: 0.657

QUERY: Another variant to check: G91Y
RESULT: 2.5

QUERY: Another variant to check: T151P
RESULT: 1.01

QUERY: Another variant to check: P466M
RESULT: 0.678

QUERY: Another variant to check: C472E
RESULT: 0.216

QUERY: Another variant to check: A373P
RESULT: 1.13

QUERY: Another variant to check: R433W
RESULT: 1.4

QUERY: Another variant to check: T391K
RESULT: 0.54

QUERY: Another variant to check: E354C
RESULT: 1.16

QUERY: Another variant to check: E270K
RESULT: 0.735

QUERY: Another variant to check: F318I
RESULT: 1.12

QUERY: Another variant to check: G408I
RESULT: 0.636

QUERY: Another variant to check: F453K
RESULT: -0.248

QUERY: Another variant to check: F453L
RESULT: 0.17

QUERY: Another variant to check: D503E
RESULT: 0.774

QUERY: Another variant to check: P166E
RESULT: -0.713

QUERY: Another variant to check: A141F
RESULT: 1.77

QUERY: Another variant to check: I224C
RESULT: 0.709

QUERY: Another variant to check: C340M
RESULT: 1.61

QUERY: Another variant to check: F230N
RESULT: 0.425

QUERY: Another variant to check: K133Q
RESULT: -0.167

QUERY: Another variant to check: A284N
RESULT: 0.828

QUERY: Another variant to check: L397I
RESULT: 0.407

QUERY: Another variant to check: G467Y
RESULT: 0.488

QUERY: Another variant to check: Q44Y
RESULT: 0.0762

QUERY: Another variant to check: E359K
RESULT: 0.82

QUERY: Another variant to check: V487H
RESULT: 0.858

QUERY: Another variant to check: P286L
RESULT: 1.14

QUERY: Another variant to check: G219V
RESULT: 1.14

Data origin, for the record: the supplement of paper PMC12667976
